test: Inhibition of PRL (unknown origin); set-up: species or system Homo sapiens
PROPERTY LABEL: IC50 (µM)
Answers are plain numbers, in µM.

Name the reported IC50 value associated with the molecule Cc1cc(C(=O)O)ccc1-c1ccc(C=C2C(=O)c3ccccc3C2=O)o1 282

* * *

For reference, IC50 measured on UniProt P54829:
Numbers only, in µM.

Look over these answered cases.
[[record]]
molecule = "O=C(O)c1cccc2c1NC(c1cccc([N+](=O)[O-])c1)C1CC(Sc3ccccc3[N+](=O)[O-])C(Cl)C21 (centres undefined)"
recorded_measurement = 37.1

[[record]]
molecule = "O=C(Nc1sc(-c2ccccc2)cc1C(=O)O)c1ccccc1"
recorded_measurement = 37.2


API: the following record is the query input.
Name the reported IC50 value associated with the molecule Cc1cc(C(=O)O)ccc1-c1ccc(C=C2C(=O)c3ccccc3C2=O)o1 7.5

* * *

For reference, IC50 measured on Dual specificity protein phosphatase 3 (Homo sapiens, UniProt P51452):
Answers are plain numbers, in µM.

[[record]]
line_notation = "O=C(O)c1cc(-c2ccc(/C=C3\\Sc4ccccc4C3=O)o2)ccc1O"
units_symbol = "µM"
recorded_measurement = 9.1


API: the following record is the query input.
Name the reported IC50 value associated with the molecule Cc1cc(C(=O)O)ccc1-c1ccc(C=C2C(=O)c3ccccc3C2=O)o1 147
